Hey, just so you know, these numbers are from the supplement of paper PMC4862054.

System: HCC1599
assay.notes: normalised response (% of control), CellTiter-Glo; higher = more viable cells (100 = DMSO, 0 = benzethonium chloride kill control)
condition.info: incubation time: 72 h
experimental.readout: normalised response (%)
Respond with the bare value in %.

// query Reported normalised response for HCC1599, given Cc1ccc(C(=O)Nc2ccc(CN3CCN(C)CC3)c(C(F)(F)F)c2)cc1C#Cc1cnc2cccnn12 [Ponatinib] (0.1 nM) ?
// result 99.4

// query Reported normalised response for HCC1599, given Clc1ccc(Nc2nnc(Cc3ccncc3)c3ccccc23)cc1 [Vatalanib] (1 nM) ?
// result 105

// query Reported normalised response for HCC1599, given O=C(CCCCCCC(=O)Nc1ccc([C@H]2O[C@@H](CSc3nc(-c4ccccc4)c(-c4ccccc4)o3)C[C@@H](c3ccc(CO)cc3)O2)cc1)NO [Tubacin] (1000 nM) ?
// result 93.2

// query Reported normalised response for HCC1599, given CCCCCCCCCCCCCCCCCCOP(=O)([O-])OC1CC[N+](C)(C)CC1 [Perifosine] (0.25 nM) ?
// result 113

// query Reported normalised response for HCC1599, given NC(=O)Nc1cc(-c2cccc(F)c2)sc1C(=O)N[C@H]1CCCNC1 [AZD7762] (1 nM) ?
// result 95.7

// query Reported normalised response for HCC1599, given C#Cc1cccc(Nc2ncnc3cc(OCCOC)c(OCCOC)cc23)c1 [Erlotinib] (1000 nM) ?
// result 100
